# ASSAY_COMMENT: protein stability index of a GFP-peptide fusion (GPS, HEK-293T) (PSI 1-6); higher = more stable;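 note: 24-mer peptide tiles fused after GFP, lentivirally expressed, FACS-sorted into six equal bins by GFP/DsRed ratio, decoded by Illumina sequencing, PSI is the read-weighted mean bin number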
# RUN_PARAMETERS: treatment: DMSO; c terminus: a fixed tail appended
METRIC: protein stability index
Write no unit; give the number alone.

// worked examples, protein stability index included
SEQUENCE_DATA: ELCRDAAQFRLLSEVEELNMSLTA [TEKT4]
protein stability index: 2.85
--
SEQUENCE_DATA: GLSSVSPSHLLLPPDTVSRTGLEK [SPDEF]
protein stability index: 4.52
--
SEQUENCE_DATA: KKFYEAFSKNLKLGIHEDSTNRRR [HSP90AB1]
protein stability index: 3.39
--
SEQUENCE_DATA: PDPDAWLRALGELLRRDLGVGTSM [FANCE]
protein stability index: 1.86
--
SEQUENCE_DATA: ESVEGVVRILLEHYYKENDPSVRL [INTS4]
protein stability index: 2.22
--
SEQUENCE_DATA: QGLLGRSPPTRPVPGHRSERAIRT [SPRY1]
protein stability index: 4.51

Q: Please report the measured protein stability index for GPDGHLPAVATLCDLFDREIVVTI [ESRRA]
Ans: 3.01

Q: Please report the measured protein stability index for DDHECCERVVINISGLRFETQLKT [KCNA1]
Ans: 2.79
